System: Plasmodium berghei
Assay: Screen against P. berghei liver stage (PbLuc), transformed with Luciferase, at 10uM
Type: functional, HepG2
Details: tested at 10 uM
In all, about 69,000 compounds went through this assay and about 8,600 (12%) showed an effect of 50% or more. This excerpt belongs to a sample that is enriched for strong results.
MEASUREMENT LABEL: INHIBITION (%)

COMPOUND: O=c1[nH]cc(Nc2ccccc2)c(=O)[nH]1
REPORTED RESULT: 43.8

COMPOUND: Cc1nc(C)c(C(=O)N2Cc3ccccc3OCC2CN(C)C)o1 (stereo unspecified)
REPORTED RESULT: 11.8

COMPOUND: Cc1ccc(-c2ccnc(NCC3(N(C)C)CCOCC3)n2)c(C)n1
REPORTED RESULT: 19.2

COMPOUND: COc1cccc(CNC(=O)c2nc3c(o2)CN(S(C)(=O)=O)C3)c1
REPORTED RESULT: 52.6

COMPOUND: COCCN1CCc2ccc(=O)n(Cc3csc(C)n3)c2CC1
REPORTED RESULT: -15.3

COMPOUND: Cc1nc(C(F)(F)F)nc(N2CCC3(CC2)CC(C(=O)O)N(C)C3)c1C (stereo unspecified)
REPORTED RESULT: 47.2

COMPOUND: O=C(C1CC1)N1CC2(CCN(CC3CC3)CC2)c2cc(F)ccc21
REPORTED RESULT: -15.9

COMPOUND: O=C(NCc1ccncc1)c1nc2c(o1)CN(C(=O)c1cccnc1)C2
REPORTED RESULT: 29

COMPOUND: CN1CCN(C(=O)c2nc3c(o2)CN(C(=O)c2cccnc2)C3)CC1
REPORTED RESULT: 50.1

COMPOUND: Cc1ccc2c(c1)[C@@H](CC(=O)N(C)C)CCO2
REPORTED RESULT: 14.5

COMPOUND: CN(C)[C@@H]1CN(Cc2ccccc2O)C[C@H]1c1cn(C)c2ccccc12
REPORTED RESULT: 49.5

Reference for the values: ChEMBL document CHEMBL4513216
